# tgt: Polyadenylate-binding protein 1 (Homo sapiens)
# Sequence (P11940 whole entry): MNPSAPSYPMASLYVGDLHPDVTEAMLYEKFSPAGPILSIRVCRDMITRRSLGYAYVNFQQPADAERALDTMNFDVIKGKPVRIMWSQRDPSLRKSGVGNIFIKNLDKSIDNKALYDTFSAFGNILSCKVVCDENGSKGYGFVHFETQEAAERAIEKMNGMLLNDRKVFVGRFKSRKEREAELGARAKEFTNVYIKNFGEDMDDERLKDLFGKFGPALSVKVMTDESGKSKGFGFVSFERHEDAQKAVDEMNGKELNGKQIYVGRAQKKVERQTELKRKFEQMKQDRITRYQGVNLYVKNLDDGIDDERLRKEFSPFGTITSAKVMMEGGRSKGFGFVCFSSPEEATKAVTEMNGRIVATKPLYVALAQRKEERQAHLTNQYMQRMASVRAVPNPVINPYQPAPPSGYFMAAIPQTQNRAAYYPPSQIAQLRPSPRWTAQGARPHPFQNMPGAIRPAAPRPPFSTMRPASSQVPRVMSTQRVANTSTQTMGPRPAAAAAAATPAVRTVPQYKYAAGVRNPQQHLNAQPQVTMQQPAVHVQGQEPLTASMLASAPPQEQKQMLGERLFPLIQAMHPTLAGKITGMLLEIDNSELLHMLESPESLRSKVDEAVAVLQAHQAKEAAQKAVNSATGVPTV
# assay-explanation: blockers of PABP interaction with poly(A) – biochemical, fluorescence polarization, uHTS, primary screen (AID 2014)
Item-by-item account of pIC50
In textbook form, pIC50 equals minus log to base ten of the concentration in mol/L.

Guide cases for pIC50, answers given:
COc1ccc2c(c1)=C(NNC(=O)Cc1cccs1)C(=O)N=2    4.51
CC1=NC(=O)NC(c2ccco2)C1C(=O)OC(C)C (centres undefined)    4.37

Requested field: pIC50. Item: CCn1c(=NC(=O)c2ccc(-n3c(O)ccc3O)cc2)sc2c(OC)ccc(OC)c21
4.00

Also check O=C(O)c1ccc(N=NCc2cc3c(cc2[N+](=O)[O-])OCO3)cc1
4.31

Also check COc1cc(C)cc(C(=O)O)c1C1C(=O)C(=O)c2c(O)cccc2C1=O (centres undefined)
5.27
